target: human calcitonin receptor (Homo sapiens); construct: Hollex encoded a protein of 474 amino acids; expressed in transfected cells; host or cells: BHK 570 / BHK/KZ10-20-48 (baby hamster kidney) stably transfected with pHollex; assay: [Ca2+]i response of BHK cells expressing cloned calcitonin receptor to calcitonin and extracellular calcium (fura-2); assay type: cell-based; conditions: 700,000 receptors/cell; double reciprocal plot; read-out: effective concentration for half-maximal response
Sequence (P30988 25-474): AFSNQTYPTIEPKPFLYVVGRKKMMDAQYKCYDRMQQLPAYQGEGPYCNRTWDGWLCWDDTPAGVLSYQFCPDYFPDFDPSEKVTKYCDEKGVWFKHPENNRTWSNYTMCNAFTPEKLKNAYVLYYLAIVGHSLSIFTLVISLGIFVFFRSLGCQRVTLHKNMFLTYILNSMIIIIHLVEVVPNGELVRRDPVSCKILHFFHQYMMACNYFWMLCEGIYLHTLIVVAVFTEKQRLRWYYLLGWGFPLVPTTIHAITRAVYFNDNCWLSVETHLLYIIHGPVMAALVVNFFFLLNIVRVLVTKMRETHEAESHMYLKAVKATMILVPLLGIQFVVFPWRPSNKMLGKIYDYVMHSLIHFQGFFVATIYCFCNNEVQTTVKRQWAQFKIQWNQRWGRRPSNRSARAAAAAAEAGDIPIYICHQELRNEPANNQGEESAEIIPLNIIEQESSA
pEC50: −log10 of the molar value.
readout: pEC50

Item [Ca+2].[Cl-].[Cl-] [calcium chloride] was tested on human calcitonin receptor (Homo sapiens); the reported pEC50 is 2.00 to 2.10
